Observed IC50, system (Homo sapiens).
Parameter measured: IC50

>>> reading("NS(=O)(=O)c1nc2c(s1)CCCC2")
"0.015 µM"
>>> reading("NS(=O)(=O)c1ncc(S(=O)(=O)c2ccccc2)s1 [5-Phenylsulfonyl-2-thiazole sulfonamide]")
"0.006 µM"
>>> reading("CCSc1ncc(S(N)(=O)=O)s1 [2-(Ethylthio)-5-thiazole sulfonamide, 2-Ethylthio-5-thiazole sulfonamide]")
"0.0063 µM"
>>> reading("NS(=O)(=O)c1ncc(-c2ccccc2)s1 [5-Phenyl-2-thiazole sulfonamide]")
"0.006 µM"
>>> reading("CCCCCCc1ncc(S(N)(=O)=O)s1 [2-Hexyl-5-thiazole sulfonamide, 2-(1-Hexyl)-5-thiazole sulfonamide]")
"0.0206 µM"
>>> reading("CCCCCC(=O)c1ncc(S(N)(=O)=O)s1 [2-Hexanoyl-5-thiazole sulfonamide, 2-(1-Hexanoyl)-5-thiazole sulfonamide]")
"0.0035 µM"
>>> reading("Cc1csc(S(N)(=O)=O)n1 [4-Methyl-2-thiazole sulfonamide]")
"0.12 µM"
>>> reading("COc1ccc(-c2nc(S(N)(=O)=O)sc2Cl)cc1")
"0.03 µM"
>>> reading("CN(C)CCCC(=O)c1ncc(S(N)(=O)=O)s1")
"0.026 µM"
>>> reading("CCCCOc1ncc(S(N)(=O)=O)s1 [2-(1-Butoxy)-5-thiazole sulfonamide]")
"0.016 µM"
